Measured values drawn from patent US9884828B2 for this set.

Molecular target: recombinant GST-LRRK2 (wild-type) (Homo sapiens (Human), UniProt Q5S007)
Sequence (Q5S007 whole entry): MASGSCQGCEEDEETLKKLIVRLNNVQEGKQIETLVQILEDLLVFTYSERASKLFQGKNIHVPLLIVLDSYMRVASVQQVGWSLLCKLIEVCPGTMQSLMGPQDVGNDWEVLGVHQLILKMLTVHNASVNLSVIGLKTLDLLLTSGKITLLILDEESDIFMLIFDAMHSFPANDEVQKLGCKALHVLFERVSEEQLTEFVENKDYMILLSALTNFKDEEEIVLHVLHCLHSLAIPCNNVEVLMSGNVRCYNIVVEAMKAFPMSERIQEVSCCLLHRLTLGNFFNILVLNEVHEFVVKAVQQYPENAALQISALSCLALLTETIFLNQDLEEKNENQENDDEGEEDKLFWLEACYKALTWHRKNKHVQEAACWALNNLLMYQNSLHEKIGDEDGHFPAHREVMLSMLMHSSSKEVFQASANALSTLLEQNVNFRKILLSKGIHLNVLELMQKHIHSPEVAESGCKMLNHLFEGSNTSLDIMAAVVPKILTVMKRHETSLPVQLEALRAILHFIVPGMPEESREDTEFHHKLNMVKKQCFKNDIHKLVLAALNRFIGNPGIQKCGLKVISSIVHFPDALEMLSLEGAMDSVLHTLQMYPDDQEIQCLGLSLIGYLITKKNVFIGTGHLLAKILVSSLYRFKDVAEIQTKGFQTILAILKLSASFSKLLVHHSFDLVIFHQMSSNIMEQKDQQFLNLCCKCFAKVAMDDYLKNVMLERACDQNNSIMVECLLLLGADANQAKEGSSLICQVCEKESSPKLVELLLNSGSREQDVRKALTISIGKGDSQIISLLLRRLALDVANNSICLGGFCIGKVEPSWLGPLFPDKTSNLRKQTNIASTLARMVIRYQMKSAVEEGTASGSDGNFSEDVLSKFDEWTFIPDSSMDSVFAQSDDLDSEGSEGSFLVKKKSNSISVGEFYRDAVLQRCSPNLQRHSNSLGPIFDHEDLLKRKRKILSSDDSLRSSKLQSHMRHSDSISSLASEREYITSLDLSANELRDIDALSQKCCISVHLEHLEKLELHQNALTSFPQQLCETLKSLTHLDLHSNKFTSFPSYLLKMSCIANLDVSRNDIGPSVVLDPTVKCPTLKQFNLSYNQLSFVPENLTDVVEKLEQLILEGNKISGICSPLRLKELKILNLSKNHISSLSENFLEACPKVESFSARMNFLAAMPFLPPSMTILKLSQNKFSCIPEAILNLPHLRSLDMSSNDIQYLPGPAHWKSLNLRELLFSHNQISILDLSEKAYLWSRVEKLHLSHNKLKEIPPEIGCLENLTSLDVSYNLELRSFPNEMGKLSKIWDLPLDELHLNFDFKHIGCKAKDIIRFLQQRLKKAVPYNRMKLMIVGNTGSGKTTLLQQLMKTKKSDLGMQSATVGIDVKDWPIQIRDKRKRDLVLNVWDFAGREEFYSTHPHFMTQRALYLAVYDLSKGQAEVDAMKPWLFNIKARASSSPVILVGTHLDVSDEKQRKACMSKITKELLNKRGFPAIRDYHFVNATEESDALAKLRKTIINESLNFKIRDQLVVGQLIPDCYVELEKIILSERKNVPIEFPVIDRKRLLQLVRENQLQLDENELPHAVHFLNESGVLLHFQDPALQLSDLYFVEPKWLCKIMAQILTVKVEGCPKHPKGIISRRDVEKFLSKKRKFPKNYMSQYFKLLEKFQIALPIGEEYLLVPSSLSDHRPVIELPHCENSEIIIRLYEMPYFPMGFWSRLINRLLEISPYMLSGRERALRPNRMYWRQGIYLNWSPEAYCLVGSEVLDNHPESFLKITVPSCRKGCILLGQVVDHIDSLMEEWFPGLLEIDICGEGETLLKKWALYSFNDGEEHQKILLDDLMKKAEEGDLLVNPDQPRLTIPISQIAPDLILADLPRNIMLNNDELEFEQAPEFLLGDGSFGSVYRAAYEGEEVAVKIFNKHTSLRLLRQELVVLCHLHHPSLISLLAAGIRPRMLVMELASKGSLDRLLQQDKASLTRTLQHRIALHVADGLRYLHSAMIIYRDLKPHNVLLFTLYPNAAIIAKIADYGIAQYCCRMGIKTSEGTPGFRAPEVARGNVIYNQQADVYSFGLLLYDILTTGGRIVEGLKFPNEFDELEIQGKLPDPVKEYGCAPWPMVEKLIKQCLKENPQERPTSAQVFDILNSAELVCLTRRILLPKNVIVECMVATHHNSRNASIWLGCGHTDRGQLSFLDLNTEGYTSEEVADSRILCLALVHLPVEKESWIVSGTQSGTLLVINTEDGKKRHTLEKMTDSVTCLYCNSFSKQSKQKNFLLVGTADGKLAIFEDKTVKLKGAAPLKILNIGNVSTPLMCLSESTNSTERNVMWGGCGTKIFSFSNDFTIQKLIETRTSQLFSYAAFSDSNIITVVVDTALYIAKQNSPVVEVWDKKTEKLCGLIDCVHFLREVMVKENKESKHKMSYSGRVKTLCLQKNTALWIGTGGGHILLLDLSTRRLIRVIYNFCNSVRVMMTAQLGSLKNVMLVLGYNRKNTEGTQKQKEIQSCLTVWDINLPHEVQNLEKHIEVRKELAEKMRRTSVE
Test: LRRK2 TR-FRET peptide assay (in vitro kinase activity), wild-type
Type: biochemical
Details: 100 μM ATP, 100 nM biotin-LRRKtide substrate, 10 nM kinase, 60 minutes at room temperature
Protocol: Compounds as described herein (compounds of Formula I, e.g., compounds of the above Examples) are tested for their in vitro kinase activities using various LRRK2 (including LRRK2 G2019S mutant) assays. […] The inhibition of each well was calculated using the control and background readings for that plate. IC50 values were determined from dose-response curves using eight concentrations from the serial dilution of the test compounds.
Measurement label: IC50 (nM)
Give the value, in units of nM, as a plain number.

Example cases with answers are listed next.
Would you please give the reported IC50 of CC(C)Nc1c(C(N)=O)nnc2ccc(N3CCOCC3)cc12 with recombinant GST-LRRK2 (wild-type) (Homo sapiens (Human), UniProt Q5S007)?
1300

Would you please give the reported IC50 of COc1cc(N2CCOCC2=O)ccc1-c1ccc(OC)c(-c2ccc3c(N[C@H](C)C4CC4)c(C(N)=O)nnc3c2)c1 with recombinant GST-LRRK2 (wild-type) (Homo sapiens (Human), UniProt Q5S007)?
490

Would you please give the reported IC50 of CN1CCC(Nc2c(C(N)=O)nnc3cc(-c4ccc(S(C)(=O)=O)cc4)ccc23)CC1 with recombinant GST-LRRK2 (wild-type) (Homo sapiens (Human), UniProt Q5S007)?
180

Would you please give the reported IC50 of NC(=O)c1nnc2cc(-c3ccncc3)ccc2c1NCCO with recombinant GST-LRRK2 (wild-type) (Homo sapiens (Human), UniProt Q5S007)?
150

Would you please give the reported IC50 of CCNc1c(C(N)=O)nnc2cc(-c3ccc(S(C)(=O)=O)cc3)ccc12 with recombinant GST-LRRK2 (wild-type) (Homo sapiens (Human), UniProt Q5S007)?
46

Let's switch to this molecule now.
Would you please give the reported IC50 of CC(C)Nc1c(-c2ncc[nH]2)nnc2cc(-c3ccc(S(C)(=O)=O)cc3)ccc12 with recombinant GST-LRRK2 (wild-type) (Homo sapiens (Human), UniProt Q5S007)?
51

----------
Molecular target: recombinant GST-LRRK2 (wild-type) (Homo sapiens (Human))
Experiment: LRRK2 TR-FRET peptide assay (in vitro kinase activity), wild-type
Type: biochemical
Settings: 100 μM ATP, 100 nM biotin-LRRKtide substrate, 10 nM kinase, 60 minutes at room temperature
Below, each of the molecules is paired with its reported IC50 value.
Give the value, in units of nM, as a plain number.

Please give measured IC50 of the following entry: CC(C)Nc1c(C(N)=O)nnc2cc(-c3cscn3)ccc12 [Compound 5-55]
13

---
Please give measured IC50 of the following entry: CC(C)Nc1c(C(N)=O)nnc2cc(-c3cccnc3)ccc12 [Compound 2-57]
33

Please give measured IC50 of the following entry: CCC(C)Sc1c(C(N)=O)nnc2cc(-c3ccc(S(C)(=O)=O)cc3)ccc12 (centres unmarked) [Compound 2-243]
12000

Please give measured IC50 of the following entry: C=C(C)c1ccc2c(N[C@H](C)C3CC3)c(C(=O)NC)nnc2c1 [Compound 14-235]
1600

Please give measured IC50 of the following entry: CS(=O)(=O)c1ccc(-c2ccc3c(NCC4CCOCC4)c(C(N)=O)nnc3c2)cc1 [Compound 2-89]
110

Please give measured IC50 of the following entry: NC(=O)c1nnc2cc(-c3ccc(N4CCOCC4)cc3)ccc2c1N [Compound 1-9]
29700

----------
Biological target: recombinant GST-LRRK2 (wild-type) (Homo sapiens (Human), UniProt Q5S007)
Assay: LRRK2 TR-FRET peptide assay (in vitro kinase activity), wild-type
Assay type: biochemical
Settings: 100 μM ATP, 100 nM biotin-LRRKtide substrate, 10 nM kinase, 60 minutes at room temperature
Measurement label: IC50 (µM)
Give the value, in units of µM, as a plain number.

Please give measured IC50 of the following entry: C[C@@H](Nc1c(C(N)=O)nnc2cc(-c3ccccc3Cl)ccc12)C1CC1 [Compound 2-117]
0.46

Please give measured IC50 of the following entry: CC(C)Nc1c(C#N)nnc2ccc(-c3cn[nH]c3)cc12 [Compound 2-128]
0.12

Please give measured IC50 of the following entry: COc1ccc(Br)cc1-c1ccc2c(N[C@H](C)C3CC3)c(C(N)=O)nnc2c1 [Compound 2-109]
0.71

Please give measured IC50 of the following entry: C[C@@H](Nc1c(C(N)=O)nnc2cc(-c3cccc(S(C)(=O)=O)c3)ccc12)C1CC1 [Compound 2-111]
0.001

Please give measured IC50 of the following entry: CC(C)Nc1c(C(N)=O)nnc2cc(Nc3ccccc3)ccc12 [Compound 4-78]
0.072

---
Please give measured IC50 of the following entry: C[C@@H](Nc1c(C(N)=O)nnc2cc(-c3ccccc3)ccc12)C1CC1 [Compound 2-110]
0.01

Please give measured IC50 of the following entry: CC(C)Nc1c(C(N)=O)nnc2cc(CCO)ccc12 [Compound 7-198]
0.94

Please give measured IC50 of the following entry: CC(C)Nc1c(C(N)=O)nnc2cc(-c3ccc(N4CCOCC4)cc3)ccc12 [Compound 2-49]
0.009
